All figures here come from patent US20170362228A1.

Molecular target: estrogen receptor alpha (ESR1) (Homo sapiens, UniProt P03372)
Construct: endogenous in cells; host or cells: MCF7 breast cancer cells
Sequence (P03372 whole entry): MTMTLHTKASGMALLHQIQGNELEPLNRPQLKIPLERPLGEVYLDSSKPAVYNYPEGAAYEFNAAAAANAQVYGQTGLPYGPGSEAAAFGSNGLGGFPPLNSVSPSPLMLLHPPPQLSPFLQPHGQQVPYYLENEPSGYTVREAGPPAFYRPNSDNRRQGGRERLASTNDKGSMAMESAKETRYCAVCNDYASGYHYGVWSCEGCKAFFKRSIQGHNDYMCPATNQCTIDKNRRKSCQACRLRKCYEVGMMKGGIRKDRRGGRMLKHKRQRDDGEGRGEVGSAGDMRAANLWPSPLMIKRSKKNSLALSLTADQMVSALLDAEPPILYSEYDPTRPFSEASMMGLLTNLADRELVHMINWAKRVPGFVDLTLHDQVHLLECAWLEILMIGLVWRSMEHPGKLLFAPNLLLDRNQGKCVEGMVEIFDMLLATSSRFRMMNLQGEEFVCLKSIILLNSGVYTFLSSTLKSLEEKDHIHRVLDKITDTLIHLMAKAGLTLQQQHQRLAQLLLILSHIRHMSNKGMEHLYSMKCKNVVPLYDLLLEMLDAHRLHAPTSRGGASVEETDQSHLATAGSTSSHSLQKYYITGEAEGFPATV
Assay: Breast Cancer Cell ERa High Content Fluorescence Imaging Degradation Assay (Example 901)
Format: cell-based
Conditions: Table 1a; MCF7 breast cancer cells, 4 hours; plateau of the maximal effect; DMSO and Fulvestrant define 0% and 100% changes in ESR1
Procedure: MCF7 breast cancer cells were seeded on day 1 at a density of 10,000 cells per well in 384 well poly-lysine coated tissue culture plate (Greiner # T-3101-4), in 50 μL/well RPMI (phenol red free), 10% FBS (Charcoal stripped), containing L-glutamine. […] Quantitative fluorescence imaging of ESR1 was carried out using a Cellomics Arrayscan V (Thermo). […]
quantity: ER-alpha MCF7 HCS (S inf) (%)

compound	ER-alpha MCF7 HCS (S inf) (%)
C[C@@H]1Cc2c([nH]c3ccccc23)[C@@H](c2c(F)cc(C(C#N)C3CN(CCCF)C3)cc2F)N1CC(F)(F)CO (stereo partly drawn) [Compound 150]	−94
C[C@@H]1Cc2c([nH]c3ccccc23)[C@@H](c2c(F)cc([C@H](O)C3CN(CCCF)C3)cc2F)N1C[C@H](F)CO (single isomer, unassigned) [Compound 140]	−95.81
C[C@H]1Cc2c([nH]c3c(F)cccc23)[C@H](c2c(F)cc([C@@H](O)C3CN(CCCF)C3)cc2F)N1CC(F)(F)CO (single isomer, unassigned) [Compound 132]	−91
C[C@@H]1Cc2c([nH]c3cc(F)ccc23)[C@@H](c2c(F)cc([C@@H](O)C3CN(CCCF)C3)cc2F)N1CC(F)(F)CO [Compound 141]	−100
C[C@@H]1Cc2c([nH]c3ccccc23)[C@@H](c2ccc(C(O)C3CN(CCCF)C3)cc2)N1CC(F)(F)CO (stereo partly drawn) [Compound 117]	−100
C[C@@H]1Cc2c([nH]c3ccccc23)[C@@H](c2c(F)cc([C@H](O)C3CN(CCCF)C3)cc2F)N1CC(F)(F)CO (single isomer, unassigned) [Compound 136]	−99.81
C[C@@H]1Cc2c([nH]c3ccc(F)cc23)[C@@H](c2c(F)cc([C@@H](O)C3CN(CCCF)C3)cc2F)N1CC(F)(F)CO (single isomer, unassigned) [Compound 115]	−100.58
C[C@@H]1Cc2c([nH]c3ccccc23)[C@@H](c2c(F)cc([C@@H](O)C3CN(CCCF)C3)cc2F)N1CC(F)(F)F [Compound 120]	−99.17
C[C@@H]1Cc2c([nH]c3ccc(F)cc23)[C@@H](c2c(F)cc(C(O)C3CN(CCCF)C3)cc2F)N1CC(C)(F)CO (stereo partly drawn) [Compound 113]	−91.41
